These measurements were taken from paper PMC7516806.

test system: S. aureus 29213; experiment: MIC in the presence of physiological salts; type: cell-based, Staphylococcus aureus; conditions: 150 mM NaCl; three independent repeats; unit not given in Table 4
Positions of bridges follow the written chain, without caps; N, C: chain ends. Residues, ends and D or L forms follow the SMILES beside them.
result.type: MIC against S. aureus 29213, NaCl (µM)
Dear colleague, please return just the value in µM, with no unit written.

compound	unit.string	MIC against S. aureus 29213, NaCl
C[C@@H]1NC(=O)[C@@H](N)CSSC[C@@H](C(=O)N[C@@H](CCCNC(=N)N)C(=O)N[C@@H](Cc2c[nH]c3ccccc23)C(=O)N[C@@H](Cc2c[nH]c3ccccc23)C(=O)N[C@@H](Cc2c[nH]c3ccccc23)C(=O)N[C@@H](CCCNC(=N)N)C(=O)N[C@@H](CCCNC(=N)N)C(N)=O)NC(=O)[C@H](Cc2ccccc2)NC(=O)[C@H](Cc2ccc(O)cc2)NC(=O)[C@H](CO)NC1=O [Peptide S1] (H-CASYFCRWWWRR-NH2; disulfide 1-6; N-terminus assumed)	µM	4

[ask] API: value(readout=MIC against S. aureus 29213, NaCl, system=S. aureus 29213) for record CC(C)C[C@H](NC(=O)[C@H](CC(C)C)NC(=O)[C@H](Cc1c[nH]c2ccccc12)NC(=O)[C@H](Cc1c[nH]c2ccccc12)NC(=O)[C@H](Cc1c[nH]c2ccccc12)NC(=O)[C@H](CCCNC(=N)N)NC(=O)[C@@H]1CSSC[C@H](N)C(=O)N[C@@H](C)C(=O)N[C@@H](CO)C(=O)N[C@@H](Cc2ccc(O)cc2)C(=O)N[C@@H](Cc2ccccc2)C(=O)N1)C(N)=O [Peptide S2] (H-CASYFCRWWWLL-NH2; disulfide 1-6; N-terminus assumed)
[reply] 8
